# system.under.test: PDE10A2 (Homo sapiens, UniProt Q9Y233)
# Construct: residues serine 449 to aspartate 789; His6 (H6) with Gateway linker and thrombin cleavage site (N, cleaved yes); made in house; host or cells: E. coli BL21(DE3) pLysS
# Sequence (Q9Y233 715-1055): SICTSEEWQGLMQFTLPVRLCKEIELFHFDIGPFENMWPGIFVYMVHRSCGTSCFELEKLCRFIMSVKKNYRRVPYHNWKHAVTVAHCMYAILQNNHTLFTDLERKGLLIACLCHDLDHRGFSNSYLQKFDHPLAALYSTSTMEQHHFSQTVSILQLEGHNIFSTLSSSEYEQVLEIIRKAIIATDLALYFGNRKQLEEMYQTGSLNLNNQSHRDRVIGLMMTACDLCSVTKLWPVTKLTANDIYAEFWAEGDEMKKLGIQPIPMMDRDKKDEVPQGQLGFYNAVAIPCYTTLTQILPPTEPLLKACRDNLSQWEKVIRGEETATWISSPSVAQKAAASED
# procedure.details: PDE10A2 Scintillation Proximity Assay (SPA), [3H]-cGMP hydrolysis
# Assay type: biochemical
# protocol.conditions: catalytic domain of human PDE10A2 (S449-D789), 0.25 nM enzyme, 50 nM cGMP + 50 nM [3H]-cGMP, 30 minutes at room temperature; read-out: PDE10A2 inhibition IC50
# Protocol: The following tests were carried out in order to determine the activity of the compounds of the present invention. PDE10 activity of the compounds of the present invention is determined using a Scintillation Proximity Assay (SPA)-based method similar to the one previously described (Fawcett, L. et al., ProcNatl Acad Sci USA (2000) 97(7):3702-3707). PDE10A1 and PDE10A2 are two splice variants of PDE10A. There are these 2 splice variants known, which differ in the N-terminal part of the protein. […]
measured.property: IC50 (nM)

// below: answered molecules
[[record]]
input_smiles = "Cc1cc(-n2ccc(=O)c(-c3ccnn3-c3ccccc3F)n2)ccn1"
measured_property = "IC50"
value_measured = 206

[[record]]
input_smiles = "O=c1ccn(-c2ccnc(Cl)c2)nc1-c1ccnn1-c1ccnc2ccc(Cl)cc12"
measured_property = "IC50"
value_measured = 154

[[record]]
input_smiles = "Cc1ccc(-n2nccc2-c2nn(-c3ccncc3)ccc2=O)cc1"
measured_property = "IC50"
value_measured = 103

[[record]]
input_smiles = "N#Cc1cc(-n2ccc(=O)c(-c3ccnn3-c3ccccc3F)n2)ccn1"
measured_property = "IC50"
value_measured = 308


(a) O=c1ccn(-c2cccnc2)nc1-c1ccnn1-c1cccc(F)c1
(b) O=c1ccn(-c2ccnc(Cl)c2)nc1-c1ccnn1-c1ccnc2ccccc12
(c) O=c1ccn(-c2ccncc2)nc1-c1ccnn1-c1cccc2ccncc12
(d) N#Cc1ccc(-n2ccc(=O)c(-c3ccnn3-c3ccccc3F)n2)cn1
(e) Cc1cc(-n2nccc2-c2nn(-c3ccc(Cl)nc3)ccc2=O)ccn1
**Query** Rank entries according to their IC50, from the largest number down. Enter labels, ranked according to the request.
**Result** e, d, a, c, b
(e: 1130 nM, d: 619 nM, a: 285 nM, c: 126 nM, b: 66 nM)

====

# system.under.test: PDE10A2 (Homo sapiens)
# Construct: residues serine 449 to aspartate 789; His6 (H6) with Gateway linker and thrombin cleavage site (N, cleaved yes)
# procedure.details: PDE10A2 Scintillation Proximity Assay (SPA), [3H]-cGMP hydrolysis
# protocol.conditions: catalytic domain of human PDE10A2 (S449-D789), 0.25 nM enzyme, 50 nM cGMP + 50 nM [3H]-cGMP, 30 minutes at room temperature; read-out: PDE10A2 inhibition IC50
pIC50: −log10 of the molar value.
measured.property: pIC50

Example entries begin here.
[[record]]
molecule = "O=c1ccn(-c2ccncc2)nc1-c1ccnn1-c1cccc2cccnc12 [Example 26]"
value_measured = 6.09

[[record]]
molecule = "O=c1ccn(-c2ccnc(C(F)(F)F)c2)nc1-c1ccnn1-c1ccccc1F [Example 94]"
value_measured = 6.55

[[record]]
molecule = "O=c1ccn(-c2ccnc(N3CCOCC3)c2)nc1-c1ccnn1-c1cccc(F)c1 [Example 42]"
value_measured = 5.85

[[record]]
molecule = "Cc1cncc(-n2ccc(=O)c(-c3ccnn3-c3ccnc4ccc(F)cc34)n2)c1 [Example 48]"
value_measured = 7.60

[[record]]
molecule = "O=c1ccn(-c2cncc(Cl)c2)nc1-c1ccnn1-c1cccc2ncccc12 [Example 60]"
value_measured = 7.11


(I) O=c1ccn(-c2ccnc(Cl)c2)nc1-c1ccnn1-c1cccc2cnccc12 [Example 59]
(II) COC(=O)c1cccc(-n2nccc2-c2nn(-c3ccncc3)ccc2=O)c1 [Example 10]
**Query** I'm curious whether I or II has the smaller pIC50 number. Which is it? Select an item and report its label.
**Result** I
(I: 6.66, II: 7.32)

(P) O=c1ccn(-c2ccncc2)nc1-c1ccnn1-c1ccnc(Cl)c1 [Example 23]
(Q) Cc1cc(-n2ccc(=O)c(-c3ccnn3-c3ccc4c(c3)OCCO4)n2)ccn1 [Example 38]
**Query** Dear colleague, could you let me know whether P or Q has the lower recorded pIC50? Thanks. API: response body contains the label of the selected item.
**Result** P
